# System: UMUC3
# Method notes: Photo-activated cytotoxicity against human UM-UC-3 cells assessed as reduction in cell viability preincubated for 24 hrs followed by 1 J/cm2 light irradiation and measured after 48 hrs formulated with 2% pluronic F-127 solution by MTT assay
# Format: functional, cell-based
# Cond: UMUC3, light or radiation study
Experimental readout: IC50 (nM)
I only need the number, in nM, no unit after it.

Task: Write down IC50 measured for item CCC1=C(C)c2cc3[nH]c(cc4nc(c5c6[nH]c(cc1n2)c(C)c6C(=O)C5)[C@@H](CCC(=O)OC)[C@@H]4C)c(C)c3C(C)OCc1cccc(I)c1 (stereo partly drawn)
Result: 200

Task: Tell me IC50 reported for CCC1=C(C)c2cc3[nH]c(cc4nc(c5c6[nH]c(cc1n2)c(C)c6C(=O)C5)[C@@H](CCC(=O)NCc1cccc(C#Cc2cccc(Nc5ncnc6cc(OCCOC)c(OCCOC)cc56)c2)c1)[C@@H]4C)c(C)c3C(C)OCc1cccc([127I])c1 (stereo partly drawn)
Result: 58.4

Task: Supply reported IC50 belonging to this compound: CCC1=C(C)c2cc3[nH]c(cc4nc(c5c6[nH]c(cc1n2)c(C)c6C(=O)C5)[C@@H](CCC(=O)NCc1cccc(I)c1)[C@@H]4C)c(C)c3C(C)OCc1cccc(C#Cc2cccc(Nc3ncnc4cc(OCCOC)c(OCCOC)cc34)c2)c1 (stereo partly drawn)
Result: 326

----------
# Tested on: T-24
# Method notes: Photo-activated cytotoxicity against human T24 cells assessed as reduction in cell viability preincubated for 24 hrs followed by 1 J/cm2 light irradiation and measured after 48 hrs formulated with 1% tween 80 solution by MTT assay
# Format: functional, cell-based
# Cond: T-24, light or radiation study
Experimental readout: pIC50
Scale: pIC50 equals -log10([C]), with [C] in mol/L.

Task: Could you please provide reported pIC50 for CCC1=C(C)c2cc3[nH]c(cc4nc(c5c6[nH]c(cc1n2)c(C)c6C(=O)C5)[C@@H](CCC(=O)OC)[C@@H]4C)c(C)c3C(C)OCc1cccc(I)c1 (stereo partly drawn) ? Thanks!
Result: 7.13

Task: Consider the compound CCC1=C(C)c2cc3[nH]c(cc4nc(c5c6[nH]c(cc1n2)c(C)c6C(=O)C5)[C@@H](CCC(=O)NCc1cccc(I)c1)[C@@H]4C)c(C)c3C(C)OCc1cccc(C#Cc2cccc(Nc3ncnc4cc(OCCOC)c(OCCOC)cc34)c2)c1 (stereo partly drawn) and give its recorded pIC50.
Result: 5.99

Task: Identify measured pIC50 associated with CCC1=C(C)c2cc3[nH]c(cc4nc(c5c6[nH]c(cc1n2)c(C)c6C(=O)C5)[C@@H](CCC(=O)NCc1cccc(C#Cc2cccc(Nc5ncnc6cc(OCCOC)c(OCCOC)cc56)c2)c1)[C@@H]4C)c(C)c3C(C)OCc1cccc([127I])c1 (stereo partly drawn)
Result: 6.86

----------
Give pIC50 for every item shown.
# Test system: T-24
# Method notes: Photo-activated cytotoxicity against human T24 cells assessed as reduction in cell viability preincubated for 24 hrs followed by 1 J/cm2 light irradiation and measured after 48 hrs formulated with 2% pluronic F-127 solution by MTT assay
# Type: functional, cell-based
# Cond: T-24, light or radiation study
The meaning of pIC50 here: minus log10 of the concentration in molar units.

Task: For T-24, give the measured pIC50 of the entry CCC1=C(C)c2cc3[nH]c(cc4nc(c5c6[nH]c(cc1n2)c(C)c6C(=O)C5)[C@@H](CCC(=O)NCc1cccc(I)c1)[C@@H]4C)c(C)c3C(C)OCc1cccc(C#Cc2cccc(Nc3ncnc4cc(OCCOC)c(OCCOC)cc34)c2)c1 (stereo partly drawn)
Result: 5.90

Task: With T-24 as the test system, provide measured pIC50 for this compound: CCC1=C(C)c2cc3[nH]c(cc4nc(c5c6[nH]c(cc1n2)c(C)c6C(=O)C5)[C@@H](CCC(=O)NCc1cccc(C#Cc2cccc(Nc5ncnc6cc(OCCOC)c(OCCOC)cc56)c2)c1)[C@@H]4C)c(C)c3C(C)OCc1cccc([127I])c1 (stereo partly drawn)
Result: 6.50

Task: Return reported pIC50 for target or system T-24, item CCC1=C(C)c2cc3[nH]c(cc4nc(c5c6[nH]c(cc1n2)c(C)c6C(=O)C5)[C@@H](CCC(=O)OC)[C@@H]4C)c(C)c3C(C)OCc1cccc(I)c1 (stereo partly drawn) .
Result: 6.75

Value source: ChEMBL document CHEMBL4400542
